- TARGET OF ASSAY: GppNHp-KRAS G12D mutant protein (Homo sapiens, UniProt P01116, G12D)
- Construct: purchased Daegu Gyeongbuk Medical Innovation Foundation (DGMIF), made to order
- ASSAY EXPLANATION: Differential scanning fluorimetry (DSF) binding affinity to GppNHp-KRAS G12D mutant protein
- MEASUREMENT CONDITIONS: DSF thermal shift, 10 μM compound, 4 μg KRAS protein, 50 mM HEPES (pH 7.5)
MEASURED PROPERTY: GppNHp-KRAS G12D (ΔTmD, ° C.) (°C)
Note: unit °C is implicit; provide only the numeric part.

{"COMPOUND": "C#Cc1c(F)ccc2cc(O)cc(-c3cc4nc(OC[C@@]56CCCN5C/C(=C\\F)C6)nc(N5C[C@H]6CC[C@@H](C5)N6)c4n4ccnc34)c12", "NUMERIC VALUE": 6.82}
{"COMPOUND": "C#Cc1c(F)ccc2cc(O)cc(-c3c(F)c4nc(OC[C@@]56CCCN5C[C@H](F)C6)nc(N5CC6CCC5CN6)c4c4cn(C)nc34)c12 (stereo partly drawn)", "NUMERIC VALUE": 5.31}

Then this compound:
Input C#Cc1c(F)ccc2cc(O)cc(-c3cc4nc(OC[C@@]56CCCN5C[C@H](F)C6)nc(N5C[C@H]6CC[C@@H](C5)N6)c4c4cn(C)nc34)c12 , output reported GppNHp-KRAS G12D (ΔTmD, ° C.).
7.24

---

# reported GppNHp-KRAS G12D (ΔTmD, ° C.); entries follow
- TARGET OF ASSAY: GppNHp-KRAS G12D mutant protein (Homo sapiens, UniProt P01116, G12D)
- Construct: purchased Daegu Gyeongbuk Medical Innovation Foundation (DGMIF), made to order
- ASSAY EXPLANATION: Differential scanning fluorimetry (DSF) binding affinity to GppNHp-KRAS G12D mutant protein
- MEASUREMENT CONDITIONS: DSF thermal shift, 10 μM compound, 4 μg KRAS protein, 50 mM HEPES (pH 7.5)

Specify GppNHp-KRAS G12D (ΔTmD, ° C.) for C#Cc1c(F)ccc2cc(O)cc(-c3cc4nc(OCC5(CN6CC[C@@H](F)C6)CCC5)nc(N5C[C@H]6CC[C@@H](C5)N6)c4n4ccnc34)c12 [Example 40] , system GppNHp-KRAS G12D mutant protein (Homo sapiens, UniProt P01116, G12D).
0.61 °C

Specify GppNHp-KRAS G12D (ΔTmD, ° C.) for Cn1cc2c(n1)c(-c1cc(O)cc3ccc(F)c(F)c13)c(F)c1nc(OC[C@@]34CCCN3C[C@H](F)C4)nc(N3C[C@H]4CC[C@@H](C3)N4)c12 [Example 95] , system GppNHp-KRAS G12D mutant protein (Homo sapiens, UniProt P01116, G12D).
7.54 °C

Specify GppNHp-KRAS G12D (ΔTmD, ° C.) for C#Cc1c(F)ccc2cc(O)cc(-c3c(F)c4nc(OC[C@@]56CCCN5C[C@H](F)C6)nc(N5CC6CCC(C5)N6)c4c4cc(C)oc34)c12 [Example 44] , system GppNHp-KRAS G12D mutant protein (Homo sapiens, UniProt P01116, G12D).
9.89 °C

Specify GppNHp-KRAS G12D (ΔTmD, ° C.) for C#Cc1c(F)ccc2cc(O)cc(-c3c(F)c4nc(OC[C@@]56CCCN5CC(=C(F)F)C6)nc(N5CC6CCC(C5)N6)c4c4cn(C)nc34)c12 [Example 91] , system GppNHp-KRAS G12D mutant protein (Homo sapiens, UniProt P01116, G12D).
−0.45 °C

Specify GppNHp-KRAS G12D (ΔTmD, ° C.) for C#Cc1c(F)ccc2cc(O)cc(-c3cc4nc(OCC5(CN6CCC[C@H](F)C6)CC5)nc(N5C[C@H]6CC[C@@H](C5)N6)c4n4ccnc34)c12 [Example 31] , system GppNHp-KRAS G12D mutant protein (Homo sapiens, UniProt P01116, G12D).
2.22 °C

Specify GppNHp-KRAS G12D (ΔTmD, ° C.) for C#Cc1c(F)ccc2cccc(-c3cc4nc(OC[C@@]56CCCN5C/C(=C\F)C6)nc(N5C[C@H]6CC[C@@H](C5)N6)c4c4cn(C)nc34)c12 [Example 78] , system GppNHp-KRAS G12D mutant protein (Homo sapiens, UniProt P01116, G12D).
1.17 °C

---

- TARGET OF ASSAY: GppNHp-KRAS G12D mutant protein (Homo sapiens, UniProt P01116, G12D)
- Construct: purchased Daegu Gyeongbuk Medical Innovation Foundation (DGMIF), made to order
- ASSAY EXPLANATION: Differential scanning fluorimetry (DSF) binding affinity to GppNHp-KRAS G12D mutant protein
- MEASUREMENT CONDITIONS: DSF thermal shift, 10 μM compound, 4 μg KRAS protein, 50 mM HEPES (pH 7.5)
// map GppNHp-KRAS G12D (ΔTmD, ° C.) onto a label; ranges lower level (below 3 °C), middle level (3 °C to below 5 °C), upper level (5 °C or more)

{"COMPOUND": "C#Cc1c(F)ccc2cc(N)cc(-c3cc4nc(OC[C@@]56CCCN5C/C(=C\\F)C6)nc(N5C[C@H]6CC[C@@H](C5)N6)c4c4cn(C)nc34)c12 [Example 74]", "CATEGORY LABEL": "upper level"}
{"COMPOUND": "C#Cc1c(F)ccc2cc(O)cc(-c3cc4nc(OC[C@]56CC(=C)CN5C[C@@H](F)C6)nc(N5C[C@H]6CC[C@@H](C5)N6)c4n4ccnc34)c12 [Example 32]", "CATEGORY LABEL": "middle level"}
{"COMPOUND": "C#Cc1c(F)ccc2cc(O)cc(-c3c(F)c4nc(OCC5(CN6CCC7(CC6)CC7(F)F)CC5)nc(N5C[C@H]6CC[C@@H](C5)N6)c4c4cn(C)nc34)c12 [Example 87]", "CATEGORY LABEL": "upper level"}

Into which bin does this compound go? CCc1c(F)ccc2cc(O)cc(-c3cc4nc(OC[C@@]56CCCN5C[C@H](F)C6)nc(N5C[C@H]6CC[C@@H](C5)N6)c4n4ccnc34)c12 [Example 1]
middle level

Into which bin does this compound go? C#Cc1c(F)ccc2cc(N)cc(-c3cc4nc(OCC5(CN6CCC7(CC6)CC7(F)F)CC5)nc(N5C[C@H]6CC[C@@H](C5)N6)c4c4cn(C)nc34)c12 [Example 76]
lower level

Into which bin does this compound go? C#Cc1c(F)ccc2cc(O)cc(-c3cc4nc(OCC5(CN6CCCC6)CC5)nc(N5C[C@H]6CC[C@@H](C5)N6)c4n4ccnc34)c12 [Example 35]
lower level

Into which bin does this compound go? Cc1cc2c(o1)c(-c1ccc(F)c3sc(N)c(C#N)c13)c(F)c1nc(OC[C@@]34CCCN3C/C(=C\F)C4)nc(N3C[C@H]4CC[C@@H](C3)N4)c12 [Example 63]
upper level

Into which bin does this compound go? C#Cc1c(F)ccc2cc(N)cc(-c3cc4nc(OC[C@@]56CCCN5C/C(=C\F)C6)nc(N5C[C@H]6CC[C@@H](C5)N6)c4n4ccnc34)c12 [Example 36]
middle level

---

- TARGET OF ASSAY: GDP-KRAS G12D mutant protein (Homo sapiens, UniProt P01116, G12D)
- Construct: purchased Daegu Gyeongbuk Medical Innovation Foundation (DGMIF), made to order
- ASSAY EXPLANATION: Differential scanning fluorimetry (DSF) binding affinity to GDP-KRAS G12D mutant protein
- MEASUREMENT CONDITIONS: DSF thermal shift, 10 μM compound, 4 μg KRAS protein
# label = Y if GDP-KRAS G12D (ΔTmD, ° C.) >= 9 °C else N

{"COMPOUND": "Cc1cc2[nH]ncc2c(-c2cc3nc(OC[C@@]45CCCN4C[C@H](F)C5)nc(N4[C@@H]5CC[C@H]4CNC5)c3n3ccnc23)c1C(F)(F)F", "TARGET OF ASSAY": "GDP-KRAS G12D mutant protein (Homo sapiens, UniProt P01116, G12D)", "CATEGORY LABEL": "N"}

Quick check, GDP-KRAS G12D (ΔTmD, ° C.) >= 9 °C? C#Cc1c(F)ccc2cc(O)cc(-c3cc4nc(OC[C@@]56CCCN5CC(=C(F)F)C6)nc(N5C[C@H]6CC[C@@H](C5)N6)c4n4ccnc34)c12
Y

Quick check, GDP-KRAS G12D (ΔTmD, ° C.) >= 9 °C? C#Cc1c(F)ccc2cccc(-c3cc4nc(OC[C@@]56CCCN5C/C(=C\F)C6)nc(N5C[C@H]6CC[C@@H](C5)N6)c4n4ccnc34)c12
N

Quick check, GDP-KRAS G12D (ΔTmD, ° C.) >= 9 °C? C#Cc1c(F)ccc2cc(O)cc(-c3cc4nc(OCC5(CN6CCC[C@H](F)C6)CC5)nc(N5C[C@H]6CC[C@@H](C5)N6)c4n4ccnc34)c12
N

Quick check, GDP-KRAS G12D (ΔTmD, ° C.) >= 9 °C? C#Cc1c(F)ccc2cc(O)cc(-c3cc4nc(OC[C@@]56CCCN5CC(=C(F)F)C6)nc(N5[C@@H]6CC[C@H]5CNC6)c4n4ccnc34)c12
Y

Quick check, GDP-KRAS G12D (ΔTmD, ° C.) >= 9 °C? Cc1cc2c(o1)c(-c1cccc3sc(N)nc13)c(F)c1nc(OC[C@@]34CCCN3C[C@H](F)C4)nc(N3CC4CCC(C3)N4)c12
N

Quick check, GDP-KRAS G12D (ΔTmD, ° C.) >= 9 °C? Cc1cc2c(o1)c(-c1c(Cl)c(C)cc3[nH]ncc13)c(F)c1nc(OC[C@@]34CCCN3C[C@H](F)C4)nc(N3C[C@H]4CC[C@@H](C3)N4)c12
N

Quick check, GDP-KRAS G12D (ΔTmD, ° C.) >= 9 °C? C#Cc1c(F)ccc2cc(O)cc(-c3c(F)c4nc(OC[C@@]56CCCN5C[C@H](F)C6)nc(N5C[C@H]6CC[C@@H](C5)N6)c4c4cn(C)nc34)c12
Y

Quick check, GDP-KRAS G12D (ΔTmD, ° C.) >= 9 °C? C#Cc1c(F)ccc2cc(O)cc(-c3c(F)c4nc(OC[C@@]56CCCN5C[C@H](F)C6)nc(N5[C@@H]6CC[C@H]5CNC6)c4c4cn(C)nc34)c12
Y

Quick check, GDP-KRAS G12D (ΔTmD, ° C.) >= 9 °C? C#Cc1c(F)ccc2cc(N)cc(-c3cc4nc(OC[C@@]56CCCN5CC(=C(F)F)C6)nc(N5[C@@H]6CC[C@H]5CNC6)c4n4ccnc34)c12
N

Quick check, GDP-KRAS G12D (ΔTmD, ° C.) >= 9 °C? C#Cc1c(F)ccc2cc(O)cc(-c3c(F)c4nc(OC[C@@]56CCCN5CC(=C(F)F)C6)nc(N5CC6CCC(C5)N6)c4c4cn(C)nc34)c12 [Example 92]
Y
